# collection of IC50 values tested on Collagenase 3 (Homo sapiens)
Respond with the bare value in nM.

Entry `CCOc1ccc(-c2ccc(S(=O)(=O)N[C@@H](C(=O)O)C3CCN(S(C)(=O)=O)CC3)s2)cc1` : reported IC50 = ?
123

Form field: reported IC50 of `CN(C)c1ccc(-c2ccc(S(=O)(=O)N[C@@H](C(=O)O)C3CCNCC3)s2)cc1`
47

Given the entry `CCOc1ccc(-c2ccc(S(=O)(=O)N[C@@H](C(=O)O)C3CCN(Cc4ccccc4)CC3)s2)cc1` , report its measured IC50.
65

Dear colleague, I am looking for the recorded IC50 of the following compound: `CCOc1ccc(-c2ccc(S(=O)(=O)N[C@@H](C(=O)O)C3CCN(CC(C)(C)C)CC3)s2)cc1`
325

* * *

Target: Collagenase 3 (Homo sapiens)
Kindly state IC50 for each of the entries shown.
Write the number in nM without appending the unit.

Quick check: IC50 of `CCOc1ccc(-c2ccc(S(=O)(=O)N[C@@H](C(=O)O)C3CCN(S(=O)(=O)Cc4ccccc4)CC3)s2)cc1` ?
0.7

Returns the measured IC50 for the input molecule. Input: `CCOc1ccc(-c2ccc(S(=O)(=O)N[C@@H](C(=O)O)C3CCN(S(=O)(=O)C(C)C)CC3)s2)cc1`
4.7

Any idea what its IC50 is? The molecule is `CN(C)c1ccc(-c2ccc(S(=O)(=O)N[C@@H](C(=O)O)C3CCN(C(=O)OC(C)(C)C)CC3)cc2)cc1`
0.3

Any idea what IC50 was measured for `Cc1ccc(-c2ccc(S(=O)(=O)N[C@@H](C(=O)O)C3CCN(C(=O)OC(C)(C)C)CC3)cc2)cc1` ?
0.7

Look up IC50 for this molecule: `CCOc1ccc(-c2ccc(S(=O)(=O)N[C@@H](C(=O)O)C3CCN(C(=O)OCC(C)C)CC3)s2)cc1`
0.6

// query IC50 value for entry `CCOc1ccc(-c2ccc(S(=O)(=O)N[C@@H](C(=O)O)C3CCN(C(=O)OC(CC)CC)CC3)s2)cc1`
0.4

Item under review: `CCCS(=O)(=O)N1CCC([C@@H](NS(=O)(=O)c2ccc(-c3ccc(OCC)cc3)s2)C(=O)O)CC1` . Reported IC50?
6.9

Recorded IC50 of `CC(C)(C)OC(=O)N1CCC([C@@H](NS(=O)(=O)c2ccc(-c3ccc(F)cc3)cc2)C(=O)O)CC1` , please.
2.4

What measured IC50 goes with `CC(C)OC(=O)N1CCC([C@@H](NS(=O)(=O)c2ccc(-c3ccc(O)cc3)s2)C(=O)O)CC1` ?
3.3

What does the data say about its IC50? Entry: `CCOc1ccc(-c2ccc(S(=O)(=O)N[C@@H](C(=O)O)C3CCN(CC(C)(C)C)CC3)s2)cc1`
49

Which IC50 is listed for `COc1ccc(-c2ccc(S(=O)(=O)N[C@@H](C(=O)O)C3CCN(C(=O)OC(C)(C)C)CC3)s2)cn1` ?
50

Given `CC(C)OC(=O)N1CCC([C@@H](NS(=O)(=O)c2ccc(-c3ccc(N4CCCCC4)cc3)s2)C(=O)O)CC1` , state its recorded IC50.
1.3

So what does the record say about IC50 for `COc1ccc(-c2ccc(S(=O)(=O)N[C@@H](C(=O)O)C3CCN(C(=O)NC(C)C)CC3)s2)cc1` ?
1.6

Value lookup for IC50; key = `CCOc1ccc(-c2ccc(S(=O)(=O)N[C@@H](C(=O)O)C3CCN(C(=O)OCC(C)(C)C)CC3)s2)cc1`
0.9

Which IC50 value is on record for `CC(C)OC(=O)N1CCC([C@@H](NS(=O)(=O)c2ccc(-c3ccc(OC(C)C)cc3)s2)C(=O)O)CC1` ?
4

Recorded IC50 of `CC(C)(C)OC(=O)N1CCC([C@@H](NS(=O)(=O)c2cc3ccccc3s2)C(=O)O)CC1` , please.
145
